Origin of measurements: patent US8912188B2

assay: In vivo pharmacokinetics in the Sprague Dawley rat; conditions: oral gavage 10 mg/kg vs intravenous 3 mg/kg (1 mg/kg for Example 105)
F (oral bioavailability) listing for selected molecules.
parameter: F (oral bioavailability)

INSERT INTO results (smiles_input, data_value) VALUES
  ('C[C@H]1COCCN1c1nc2cc(C(=O)O)ccc2nc1-c1ccc(F)cc1', '74.8%'),
  ('CN(c1nc2cc(C(=O)O)ccc2nc1-c1cc2ccccc2o1)C1CC1', '79%'),
  ('C[C@H]1CCCN1c1nc2cc(C(=O)O)ccc2nc1-c1cc2ccccc2o1', '63.4%'),
  ('CC(C)N(C)c1nc2cc(C(=O)O)ccc2nc1-c1cc2cc(F)ccc2o1', '74.8%');

---

Tmax (time to maximum blood concentration after an oral dose) listing for selected molecules.
Experiment: In vivo pharmacokinetics in the Sprague Dawley rat
Conditions: oral gavage 10 mg/kg
Procedure: Pharmacokinetics of a PASK Inhibitor The test compounds were formulated in polyethylene glycol and beta cyclodextrin in water for administration at 1 mg/kg for Example 105, and at 3 mg/kg for Example 14, 15, and 18 for intravenous administration via the tail vein and 10 mg/kg for oral administration by gavage. Blood samples were collected at 0.083, 0.25, 0.5, 1, 2, 4, 6, 8, and 24 hours and the samples were analyzed for test compounds content using LC/MS/MS. […]
parameter: Tmax (time to maximum blood concentration after an oral dose) (h)

INSERT INTO measurements (smiles_input, data_value) VALUES
  ('CN(c1nc2cc(C(=O)O)ccc2nc1-c1cc2ccccc2o1)C1CC1', 6),
  ('C[C@H]1COCCN1c1nc2cc(C(=O)O)ccc2nc1-c1ccc(F)cc1', 1),
  ('C[C@H]1CCCN1c1nc2cc(C(=O)O)ccc2nc1-c1cc2ccccc2o1', 6),
  ('CC(C)N(C)c1nc2cc(C(=O)O)ccc2nc1-c1cc2cc(F)ccc2o1', 8);

---

Vss (volume of distribution) listing for selected molecules.
test: In vivo pharmacokinetics in the Sprague Dawley rat; details: intravenous via tail vein, 3 mg/kg (1 mg/kg for Example 105)
parameter: Vss (volume of distribution)

INSERT INTO results (smiles_input, parameter, data_value) VALUES
  ('CC(C)N(C)c1nc2cc(C(=O)O)ccc2nc1-c1cc2cc(F)ccc2o1', 'Vss (volume of distribution)', '0.366 L/kg'),
  ('CN(c1nc2cc(C(=O)O)ccc2nc1-c1cc2ccccc2o1)C1CC1', 'Vss (volume of distribution)', '0.347 L/kg'),
  ('C[C@H]1CCCN1c1nc2cc(C(=O)O)ccc2nc1-c1cc2ccccc2o1', 'Vss (volume of distribution)', '0.362 L/kg'),
  ('C[C@H]1COCCN1c1nc2cc(C(=O)O)ccc2nc1-c1ccc(F)cc1', 'Vss (volume of distribution)', '0.407 L/kg');

---

t1/2 (half-life) listing for selected compounds.
Assay: In vivo pharmacokinetics in the Sprague Dawley rat
Conditions: intravenous 3 mg/kg (1 mg/kg for Example 105), oral 10 mg/kg
Description: Pharmacokinetics of a PASK Inhibitor The test compounds were formulated in polyethylene glycol and beta cyclodextrin in water for administration at 1 mg/kg for Example 105, and at 3 mg/kg for Example 14, 15, and 18 for intravenous administration via the tail vein and 10 mg/kg for oral administration by gavage. Blood samples were collected at 0.083, 0.25, 0.5, 1, 2, 4, 6, 8, and 24 hours and the samples were analyzed for test compounds content using LC/MS/MS. […]
parameter: t1/2 (half-life) (h)

INSERT INTO assay_data (smiles_input, parameter, data_value) VALUES
  ('C[C@H]1COCCN1c1nc2cc(C(=O)O)ccc2nc1-c1ccc(F)cc1', 't1/2 (half-life)', 7.72),
  ('C[C@H]1CCCN1c1nc2cc(C(=O)O)ccc2nc1-c1cc2ccccc2o1', 't1/2 (half-life)', 3.68),
  ('CN(c1nc2cc(C(=O)O)ccc2nc1-c1cc2ccccc2o1)C1CC1', 't1/2 (half-life)', 3.39),
  ('CC(C)N(C)c1nc2cc(C(=O)O)ccc2nc1-c1cc2cc(F)ccc2o1', 't1/2 (half-life)', 7.72);
